system: MDA-MB-231 breast; assay: NCI-60 one-dose screen, 48 h; conditions: 10 µM unless noted
This is part of a sample that, as a whole, favours compounds with a hit. Of some 83,000 tested, about 20% had one in any assay. Activity calls are given as the source filed them. Rule for the calls: active = growth percent below 10; inactive = the rest.
Form entry, call: pick from T (active), F (inactive)

{"columns": ["COMPOUND", "CAT"],
 "data": [
  ["CCN(CC)C(=O)CC1=C(C)/C(=C/c2[nH]c(-c3ccc[nH]3)cc2OC)N=C1C", "T"],
  ["Cc1nc2sc(C(=O)Nc3cccc(Cl)c3C)c(N)c2cc1C(=O)/C=C/c1ccccc1", "T"],
  ["ClCCn1cnc2c(SCc3ccccc3)ncnc21", "F"],
  ["COC(=O)c1c2c(c(C)[n+]([O-])c1C)C(=O)C(NCc1ccccc1)=CC2=O", "F"],
  ["O=C(/C=C/C12c3ccccc3C(c3ccccc31)C1C(=O)NC(=O)C12)c1ccc(Cl)cc1Cl (stereo not given)", "F"]
]}

Query block: For COc1cc(C[C@H]2COc3cc(O)cc(O)c3C2=O)ccc1O , what call appears in the results of this test?
Result block: F

Query block: For Cc1ccc2nc(-c3ccc(C(=O)N/N=C/c4ccc([N+](=O)[O-])cc4)cc3)[nH]c2c1 , what call appears in the results of this test?
Result block: F

Query block: For N#CC1=C(N)Oc2c(sc3c(F)cccc23)C1c1ccc([N+](=O)[O-])cc1 (stereo not given) , what call appears in the results of this test?
Result block: T

Query block: For CCOC(=O)c1c(C)nc2c(c1N)C(=O)C(=O)N2Cc1ccc(OC)cc1 , what call appears in the results of this test?
Result block: F

Query block: For CCCc1cc(=O)oc2c(C(=O)CC(C)C)c(O)c(CC=C(C)C)c(O)c12 , what call appears in the results of this test?
Result block: T
